FYI, the data here is from patent US20030148958A1.

Molecular target: T1, CRF2R
T1 sequence (Q13324 whole entry, species assumed, looked up): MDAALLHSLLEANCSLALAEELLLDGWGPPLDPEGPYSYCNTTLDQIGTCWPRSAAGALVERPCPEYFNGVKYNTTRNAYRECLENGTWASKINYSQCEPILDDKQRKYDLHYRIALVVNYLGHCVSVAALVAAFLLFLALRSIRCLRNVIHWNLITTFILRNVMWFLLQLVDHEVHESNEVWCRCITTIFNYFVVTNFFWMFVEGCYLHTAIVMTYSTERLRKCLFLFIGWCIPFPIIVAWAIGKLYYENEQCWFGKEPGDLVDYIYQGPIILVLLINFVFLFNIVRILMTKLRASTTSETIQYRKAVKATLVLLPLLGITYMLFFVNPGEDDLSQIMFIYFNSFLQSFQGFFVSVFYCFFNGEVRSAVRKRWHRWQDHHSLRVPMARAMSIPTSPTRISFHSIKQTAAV
Assay: cell-based or functional assay
Ends that are not written are not given here.
Assign Condition met to entries whose CRF2R EC50 meets or exceeds 20 nM; assign Condition not met to the rest.

ZGPPISIDLPLWLLRKMIEIEKQEKEKQQAANNRLLLDTI (C-terminal amide) [SEQ ID NO 218]: Condition not met

Determine whether this binder has CRF2R EC50 no lower than 20 nM: ZGPPISIDLPTWLLRKMIEIEKQEKEKQQAANNARLLARI (C-terminal amide) [SEQ ID NO 292] Condition met

Determine whether this binder has CRF2R EC50 no lower than 20 nM: DNPSLSIDLPLFLLRTLLELEKTQSQRERAEQNARIFARV-NH2 [SEQ ID NO 334] Condition not met

Determine whether this binder has CRF2R EC50 no lower than 20 nM: NDDPPISIDLPFQLLRNMIEMARIENEREQAGLNAKYLAEV-NH2 [SEQ ID NO 258] Condition met

Determine whether this binder has CRF2R EC50 no lower than 20 nM: IVLSLDVPIGLLQILLEQEKARAAREQATTNARILARV-NH2 [SEQ ID NO 325] Condition not met

Determine whether this binder has CRF2R EC50 no lower than 20 nM: DNPSLSIDLPLFLLRTLLELEKTQSQRERAEQNAIIFASV-NH2 [SEQ ID NO 343] Condition not met

Determine whether this binder has CRF2R EC50 no lower than 20 nM: NDDPPISIDLPYYLLRNMIEMARIENEREQAGLNAKYLAEV-NH2 [SEQ ID NO 267] Condition met

Determine whether this binder has CRF2R EC50 no lower than 20 nM: ZGPPISIDVPYHLLRKVIEIEKQEKEKQQAANNARLLARI (C-terminal amide) [SEQ ID NO 377] Condition not met

Determine whether this binder has CRF2R EC50 no lower than 20 nM: ZGPPISIDLPYHLLRKMIEIEKQEKEKQQAANNALLLDTI (C-terminal amide) [SEQ ID NO 314] Condition not met

Determine whether this binder has CRF2R EC50 no lower than 20 nM: ZGPPISIDLPFQLLRKAIEIEKQEKEKQQAANNALLLATI (C-terminal amide) [SEQ ID NO 364] Condition not met

Determine whether this binder has CRF2R EC50 no lower than 20 nM: ZGPPISIDLPQWLLRKMIEIEKQEKEKQQAANNRLLLDTI (C-terminal amide) [SEQ ID NO 213] Condition met

Determine whether this binder has CRF2R EC50 no lower than 20 nM: ZGPPISIDLPLQLLRKMIEIEKQEKEKQQATTNARLLDTV (C-terminal amide) [SEQ ID NO 246] Condition met

Determine whether this binder has CRF2R EC50 no lower than 20 nM: ZGPPISIDLPLQLLEKMIEIEKQEKEKQQAANNALLLATI (not fully specified; C-terminal amide) [SEQ ID NO 249] Condition not met

Determine whether this binder has CRF2R EC50 no lower than 20 nM: ZGPPISIDVPYYLLRKVIEIEKQEKEKQQAANNARLLARI (C-terminal amide) [SEQ ID NO 378] Condition not met

Determine whether this binder has CRF2R EC50 no lower than 20 nM: ZGPPISIDVPYQLLRKVIEIEKQEKEKQQAANNARLLARI (C-terminal amide) [SEQ ID NO 375] Condition not met

Determine whether this binder has CRF2R EC50 no lower than 20 nM: NDDPPISIDLPLHLLRNMIEMARIENEREQAGLNAKYLAEV-NH2 [SEQ ID NO 259] Condition met

Determine whether this binder has CRF2R EC50 no lower than 20 nM: NDDPPISIDLPFFLLRNMIEMARIENEREQAGLNAKYLAEV-NH2 [SEQ ID NO 264] Condition met

Determine whether this binder has CRF2R EC50 no lower than 20 nM: ZGPPISIDLPLYLLRKMIEIEKQEKEKQQATTNARLLDRV (C-terminal amide) [SEQ ID NO 243] Condition not met

Determine whether this binder has CRF2R EC50 no lower than 20 nM: ZGPPISIDLPFQLLRVLIEIEKQEKEKQQAANNALLLATI (C-terminal amide) [SEQ ID NO 361] Condition not met

Determine whether this binder has CRF2R EC50 no lower than 20 nM: ZGPPISIDLPYWLLRKVIEIEKQEKEKQQAANNALLLDTI (C-terminal amide) [SEQ ID NO 311] Condition not met
